# ASSAY PROCEDURE: Phase 1/1B first-in-human study, safety and PK (Cohorts 1-5)
# Assay type: in vivo
# CONDITION CONTEXT: human, plasma, po, 550 mg, 550 mg QD, C1D1, N=6; in parentheses: interpret with caution (large extrapolated AUC); read-out: t1/2 (converted)
REPORTED PROPERTY: half-life (h)
Numbers only, in h.

Data request: Can you look up the measured half-life of Cc1c(N2CCC3(CC2)CO[C@@H](C)[C@H]3N)nc(C)n(-c2cccc(Cl)c2Cl)c1=O (atropisomer, axis not shown; (Ra)) [Compound (10b)] for me?
Data returned: 13.5

---

# ASSAY PROCEDURE: Phase 1/1B first-in-human study, safety and PK (Cohorts 1-5)
# Assay type: in vivo
# CONDITION CONTEXT: human, plasma, oral; read-out: Human Half life
REPORTED PROPERTY: half-life

Data request: State the recorded half-life for this entry: Cc1c(N2CCC3(CC2)CO[C@@H](C)[C@H]3N)nc(C)n(-c2cccc(Cl)c2Cl)c1=O (atropisomer, axis not shown; (Ra)) [Compound (10b)]
Data returned: 10 to 16 h

---

# ASSAY PROCEDURE: Phase 1/1B first-in-human study, safety and PK (Cohorts 1-5)
# Assay type: in vivo
# CONDITION CONTEXT: human, plasma, oral, 250 mg, 250 mg QD, C1D1, N=2 (1 subject with active gastritis excluded)
REPORTED PROPERTY: Cmax

Data request: I am curious: what Cmax value has been reported for Cc1c(N2CCC3(CC2)CO[C@@H](C)[C@H]3N)nc(C)n(-c2cccc(Cl)c2Cl)c1=O (atropisomer, axis not shown; (Ra)) [Compound (10b)] ?
Data returned: 797 ng/mL

---

# ASSAY PROCEDURE: Single-dose pharmacokinetics, Beagle dog
# Assay type: in vivo, male)
# CONDITION CONTEXT: male, Beagle, dog, plasma; oral 10 mg/kg, free base
REPORTED PROPERTY: Cmax
// unit must come after the numeric part

Data request: Fill blank: measured Cmax of the compound Cc1c(N2CCC3(CC2)CO[C@@H](C)[C@H]3N)nc(C)n(-c2cccc(Cl)c2Cl)c1=O (atropisomer, axis not shown; (Ra)) [Compound (10b)] is ____.
Data returned: 6.37 µM

---

# ASSAY PROCEDURE: Single-dose pharmacokinetics, Sprague Dawley rat
# Type: in vivo, male)
# CONDITION CONTEXT: male, Sprague Dawley, rat, plasma; IV 0.3 mg/kg, free base; read-out: Clp (converted)
REPORTED PROPERTY: clearance (mL/min/kg)
Give bare numbers, in mL/min/kg.

Data request: Quick one: clearance of Cc1c(N2CCC3(CC2)CO[C@@H](C)[C@H]3N)nc(C)n(-c2cccc(Cl)c2Cl)c1=O (atropisomer, axis not shown; (Ra)) [Compound (10b)] ?
Data returned: 10.2

---

# ASSAY PROCEDURE: Single-dose pharmacokinetics, Sprague Dawley rat
# Format: in vivo, male)
# CONDITION CONTEXT: male, Sprague Dawley, rat, plasma; IV 0.3 mg/kg, free base; read-out: AUC0→24
REPORTED PROPERTY: AUC(0-t) (µM·h)
Give bare numbers, in µM·h.

Data request: Record request: AUC(0-t) value, item Cc1c(N2CCC3(CC2)CO[C@@H](C)[C@H]3N)nc(C)n(-c2cccc(Cl)c2Cl)c1=O (atropisomer, axis not shown; (Ra)) [Compound (10b)]
Data returned: 3.27

---

# ASSAY PROCEDURE: Phase 1/1B first-in-human study, safety and PK (Cohorts 1-5)
# Assay type: in vivo
# CONDITION CONTEXT: human, plasma, oral, 250 mg, 250 mg QD, C2D1, N=1
# Description: The initial results were from Cohorts 1-5 of the Phase 1/1B First-in-Human Study of Example 6. No safety findings impacting the risk or benefit of compound (10b) reported in the 19 patients dosed. Nine (9) treatment-emergent serious adverse events (SAEs) were reported in 7 patients, none of which were deemed related to the treatment with compound (10b).
REPORTED PROPERTY: Cmax (ng/mL)
Numbers only, in ng/mL.

Data request: What value of Cmax has been reported for the following molecule? Cc1c(N2CCC3(CC2)CO[C@@H](C)[C@H]3N)nc(C)n(-c2cccc(Cl)c2Cl)c1=O (atropisomer, axis not shown; (Ra)) [Compound (10b)]
Data returned: 1380

---

# ASSAY PROCEDURE: Phase 1/1B first-in-human study, safety and PK (Cohorts 1-5)
# Assay type: in vivo
# CONDITION CONTEXT: human, plasma, oral, 80 mg, 80 mg QD, C2D1, N=1
REPORTED PROPERTY: Cmax (ng/mL)
Numbers only, in ng/mL.

Data request: Could you share which Cmax value was measured for Cc1c(N2CCC3(CC2)CO[C@@H](C)[C@H]3N)nc(C)n(-c2cccc(Cl)c2Cl)c1=O (atropisomer, axis not shown; (Ra)) [Compound (10b)] ?
Data returned: 622

---

# ASSAY PROCEDURE: Single oral dose exposure in NOD/SCID mice
# Assay type: in vivo
# CONDITION CONTEXT: male, mouse, brain, single oral dose 10 mg/kg, read-out: total brain/plasma levels at 24 hours
REPORTED PROPERTY: Kp at 24 h
Give bare numbers.

Data request: Value lookup for Kp at 24 h; key = Cc1c(N2CCC3(CC2)CO[C@@H](C)[C@H]3N)nc(C)n(-c2cccc(Cl)c2Cl)c1=O (atropisomer, axis not shown; (Ra)) [Compound (10b)]
Data returned: 0.3

---

# ASSAY PROCEDURE: Phase 1/1B first-in-human study, safety and PK (Cohorts 1-5)
# Format: in vivo
# CONDITION CONTEXT: human, plasma, oral, 550 mg, 550 mg QD, C1D1, N=6
REPORTED PROPERTY: Cmax (ng/mL)
Numbers only, in ng/mL.

Data request: For the compound Cc1c(N2CCC3(CC2)CO[C@@H](C)[C@H]3N)nc(C)n(-c2cccc(Cl)c2Cl)c1=O (atropisomer, axis not shown; (Ra)) [Compound (10b)] , what Cmax is on record?
Data returned: 2550

---

# ASSAY PROCEDURE: Single-dose pharmacokinetics, summary across species
# Assay type: in vivo
# CONDITION CONTEXT: both sexes, CD-1, C57BL/6, Sprague Dawley, Beagle, mouse, rat, dog, monkey, plasma, oral doses 3- to 30-fold higher than intravenous doses, read-out: apparent oral bioavailabilities
REPORTED PROPERTY: bioavailability

Data request: State the recorded bioavailability for this entry: Cc1c(N2CCC3(CC2)CO[C@@H](C)[C@H]3N)nc(C)n(-c2cccc(Cl)c2Cl)c1=O (atropisomer, axis not shown; (Ra)) [Compound (10b)]
Data returned: 51.2 to 115%

---

# ASSAY PROCEDURE: Single oral dose exposure in NOD/SCID mice
# Assay type: in vivo
# CONDITION CONTEXT: male, mouse, brain, single oral dose 100 mg/kg, read-out: total brain/plasma levels at 24 hours
# Experimental: Male NOD/SCID mice (n=3 per group) were administered a single dose of Compound (10b) at 1, 3, 10, 30, and 100 mg/kg by oral gavage. Plasma was collected at 0.25, 1, 2, 4, 8, and 24 hours after each dose, and brains were collected at 24 hours after each dose. Compound (10b) concentrations were determined with LC-MS/MS.
REPORTED PROPERTY: Kp at 24 h
Give bare numbers.

Data request: Looking for the measured Kp at 24 h of Cc1c(N2CCC3(CC2)CO[C@@H](C)[C@H]3N)nc(C)n(-c2cccc(Cl)c2Cl)c1=O (atropisomer, axis not shown; (Ra)) [Compound (10b)] , can you help?
Data returned: 0.37

---

# ASSAY PROCEDURE: Phase 1/1B first-in-human study, safety and PK (Cohorts 1-5)
# Assay type: in vivo
# CONDITION CONTEXT: human, plasma, oral, 400 mg, 400 mg QD, C2D1, N=3
REPORTED PROPERTY: Cmax
Please give the number followed by its unit.

Data request: For the molecule shown here, Cc1c(N2CCC3(CC2)CO[C@@H](C)[C@H]3N)nc(C)n(-c2cccc(Cl)c2Cl)c1=O (atropisomer, axis not shown; (Ra)) [Compound (10b)] , give the reported Cmax.
Data returned: 2270 ng/mL

---

# ASSAY PROCEDURE: Single oral dose exposure in NOD/SCID mice
# Format: in vivo
# CONDITION CONTEXT: male, mouse, plasma, single oral dose 10 mg/kg
REPORTED PROPERTY: AUC(0-inf) (ng·h/mL)
Answers are plain numbers, in ng·h/mL.

Data request: Need AUC(0-inf), item Cc1c(N2CCC3(CC2)CO[C@@H](C)[C@H]3N)nc(C)n(-c2cccc(Cl)c2Cl)c1=O (atropisomer, axis not shown; (Ra)) [Compound (10b)]
Data returned: 13000

---

# ASSAY PROCEDURE: Single-dose pharmacokinetics, Cynomolgus monkey
# Type: in vivo, male)
# CONDITION CONTEXT: male, cynomolgus monkey, plasma; IV 0.3 mg/kg, free base
REPORTED PROPERTY: half-life (h)
One number for each entry, in h.

Data request: Recorded half-life for Cc1c(N2CCC3(CC2)CO[C@@H](C)[C@H]3N)nc(C)n(-c2cccc(Cl)c2Cl)c1=O (atropisomer, axis not shown; (Ra)) [Compound (10b)] , please?
Data returned: 6.44
